assay: Human pharmacokinetic study, repeated daily oral dosing for 8 d; assay type: in vivo; conditions: both, human, plasma, oral, 1000 mg
Readout type: Cmax (ng/mL)
# output: bare number, implied unit ng/mL

Reported Cmax for "CS(=O)(=O)CCC#N" was 41400
